- System: NCI-H460
- Method description: Cytotoxicity against human NCI-H460 cells assessed as inhibition of cell proliferation after 48 hrs by XTT assay
- Type: functional, cell-based
- Experimental setup: NCI-H460, 48 h
Quick list: IC50 per entry.
Experimental endpoint: IC50 (µM)

smiles_str=COc1c(OC(C)=O)cc2oc3cc(O)c(CC=C(C)C)c(O)c3c(=O)c2c1CC=C(C)C measured_target=NCI-H460 unit_annotation=µM censoring_sign== observed_measurement=12.6
smiles_str=C=CCOc1cc2oc3cc(O)c(CC=C(C)C)c(O)c3c(=O)c2c(CC=C(C)C)c1OC measured_target=NCI-H460 unit_annotation=µM censoring_sign== observed_measurement=12.2
smiles_str=CC(C)=CCc1c(O)cc2oc3cc(O)c(OCc4cn(CC(=O)OC(C)(C)C)nn4)c(CC=C(C)C)c3c(=O)c2c1O measured_target=NCI-H460 unit_annotation=µM censoring_sign=> observed_measurement=100
smiles_str=COc1c(OS(=O)(=O)C(F)(F)F)cc2oc3cc(OS(=O)(=O)C(F)(F)F)c(CC=C(C)C)c(O)c3c(=O)c2c1CC=C(C)C measured_target=NCI-H460 unit_annotation=µM censoring_sign== observed_measurement=22.4
smiles_str=COc1c(O)cc2oc3c(Cl)c(O)c(CCC(C)C)c(O)c3c(=O)c2c1CCC(C)C measured_target=NCI-H460 unit_annotation=µM censoring_sign== observed_measurement=9.96
smiles_str=COc1c(OCC(=O)O)cc2oc3cc(O)c(CC=C(C)C)c(O)c3c(=O)c2c1CC=C(C)C measured_target=NCI-H460 unit_annotation=µM censoring_sign== observed_measurement=54.6
smiles_str=COc1c(N)cc2oc3ccc(CCC(C)C)c(O)c3c(=O)c2c1CCC(C)C measured_target=NCI-H460 unit_annotation=µM censoring_sign== observed_measurement=17.6
smiles_str=COc1c(O)cc2oc3c([N+](=O)[O-])c(O)c(CCC(C)C)c(O)c3c(=O)c2c1CCC(C)C measured_target=NCI-H460 unit_annotation=µM censoring_sign== observed_measurement=16.8
